- Target desc: 17-beta-hydroxysteroid dehydrogenase type 3 (Homo sapiens, UniProt P37058)
- Sequence (P37058 whole entry): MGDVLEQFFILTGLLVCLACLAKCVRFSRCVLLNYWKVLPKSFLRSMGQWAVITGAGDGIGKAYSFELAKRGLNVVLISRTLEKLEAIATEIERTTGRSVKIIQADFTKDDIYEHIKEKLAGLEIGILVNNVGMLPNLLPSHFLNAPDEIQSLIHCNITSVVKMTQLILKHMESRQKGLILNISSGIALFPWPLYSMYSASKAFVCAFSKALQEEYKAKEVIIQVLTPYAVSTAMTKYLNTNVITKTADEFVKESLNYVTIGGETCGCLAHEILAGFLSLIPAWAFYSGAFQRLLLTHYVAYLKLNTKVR
Measured IC50 accompanies every entry in the list below.
The answer should read as a number with its unit following.

Before answering, review these 2 worked examples.
O=C1/C(=C/c2ccc(O)c(Br)c2)OC(=S)N1c1ccccc1
6 nM
COc1ccc(N2C(=O)/C(=C/c3cc(Cl)c(O)c(Cl)c3)OC2=S)cc1
12 nM

Summary line: O=C1/C(=C/c2ccc(O)c(Br)c2)OC(=S)N1c1ccc2c(c1)OCO2 , 17-beta-hydroxysteroid dehydrogenase type 3 (Homo sapiens, UniProt P37058), reported IC50 = 12 nM

Let me check: O=C1/C(=C/c2ccc(O)c(Br)c2)OC(=S)N1c1ccc(Cl)cc1 , system 17-beta-hydroxysteroid dehydrogenase type 3 (Homo sapiens, UniProt P37058), measured IC50 is 6 nM

Given the compound COc1cccc(N2C(=O)/C(=C/c3ccc(O)c(Br)c3)OC2=S)c1 and test system 17-beta-hydroxysteroid dehydrogenase type 3 (Homo sapiens, UniProt P37058), the measured IC50 is 7 nM
